- tested-system: T1, human SLITRK6 extracellular domain linked to his tag (human, UniProt Q9H5Y7 27-608)
- T1 construct: extracellular domain; also called huSLITRK6; Hu SLITRK6; not shown: his tag
- protocol-text: BLI binning on huSLITRK6-his; Ab1 = row antibody first, then Ab2 (competitor) = phA290
Recorded epitope binning signal values for a group of binders are listed next.
In your answer, state the number alone without any accompanying words.

phA108 (antibody, V domains shown, From phage display, then full-length construction; Only the variable regions are tied to the name) VH: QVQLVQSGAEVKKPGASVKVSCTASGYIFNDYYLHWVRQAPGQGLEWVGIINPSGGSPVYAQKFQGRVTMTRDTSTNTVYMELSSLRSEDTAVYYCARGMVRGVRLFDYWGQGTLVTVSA VL: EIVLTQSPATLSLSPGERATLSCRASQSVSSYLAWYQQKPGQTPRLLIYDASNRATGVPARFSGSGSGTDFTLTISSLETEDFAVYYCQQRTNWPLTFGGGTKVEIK ... 0.0375

Continue with the binder presented below.
Short answer for hu1H2-03 (antibody, V domains shown, see m20) VH: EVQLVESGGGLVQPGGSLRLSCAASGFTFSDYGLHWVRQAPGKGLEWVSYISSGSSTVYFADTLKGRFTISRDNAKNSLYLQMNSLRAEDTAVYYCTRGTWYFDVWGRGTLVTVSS VL: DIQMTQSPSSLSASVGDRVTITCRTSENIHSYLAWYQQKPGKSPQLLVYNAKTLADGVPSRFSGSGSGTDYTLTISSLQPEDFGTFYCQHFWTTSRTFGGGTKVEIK : epitope binning signal was 0.299
